# measurement-notes: net positive charge
# Assay type: physicochemical
# measurement-context: pH 7.3
endpoint-name: net positive charge at pH 7.3

[[record]]
molecule = "NC[C@H]1O[C@H](O[C@H]2[C@H](O)[C@@H](O[C@H]3O[C@H](CO)[C@@H](O)[C@H](N)[C@H]3O)[C@H](N)C[C@@H]2N)[C@H](N)[C@@H](O)[C@@H]1O"
test_result = "+5"

[[record]]
molecule = "[H]/N=C(/N)N[C@H]1[C@H](O)[C@@H](O)[C@H](O[C@@H]2O[C@@H](C)[C@](O)(C=O)[C@H]2O[C@@H]2O[C@@H](CO)[C@H](O)[C@@H](O)[C@@H]2NC)[C@@H](N/C(N)=N\\[H])[C@@H]1O"
test_result = "+3"

[[record]]
molecule = "NC[C@H]1O[C@H](O[C@H]2[C@H](O)[C@@H](O[C@H]3O[C@H](CO)[C@@H](O)[C@H](N)[C@H]3O)[C@H](N)C[C@@H]2N)[C@H](O)[C@@H](O)[C@@H]1O [Kanamycin, reference compound]"
test_result = "~+4.5"

[[record]]
molecule = "CCC[C@@H]1C[C@@H](C(=O)N[C@@H]([C@H]2O[C@H](SC)[C@H](O)[C@@H](O)[C@H]2O)[C@@H](C)O)N(C)C1 [lincomycin, reference compound]"
test_result = "+1"

[[record]]
molecule = "NC[C@@H]1O[C@H](O[C@H]2[C@@H](O)[C@H](O[C@@H]3[C@@H](O)[C@H](N)C[C@H](N)[C@H]3O[C@H]3O[C@H](CN)[C@@H](O)[C@H](O)[C@H]3N)O[C@@H]2CO)[C@H](N)[C@@H](O)[C@@H]1O"
test_result = "+6"

